- ASSAYED TARGET: MetAP-2 (Homo sapiens, UniProt P50579)
- Sequence (P50579 whole entry, species assumed): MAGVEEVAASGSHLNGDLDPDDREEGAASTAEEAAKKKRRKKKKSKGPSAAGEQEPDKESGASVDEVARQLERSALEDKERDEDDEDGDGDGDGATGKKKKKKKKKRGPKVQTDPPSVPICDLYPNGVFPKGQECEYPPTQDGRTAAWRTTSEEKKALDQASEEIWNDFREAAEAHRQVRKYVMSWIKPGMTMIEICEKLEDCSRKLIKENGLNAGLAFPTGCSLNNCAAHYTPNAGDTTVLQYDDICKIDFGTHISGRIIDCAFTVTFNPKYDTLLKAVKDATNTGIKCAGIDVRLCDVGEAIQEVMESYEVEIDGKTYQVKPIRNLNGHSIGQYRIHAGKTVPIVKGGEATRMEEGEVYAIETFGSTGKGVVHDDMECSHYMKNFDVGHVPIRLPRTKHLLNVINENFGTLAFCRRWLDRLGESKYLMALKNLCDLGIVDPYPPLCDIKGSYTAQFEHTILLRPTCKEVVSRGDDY
pIC50: −log10 of the molar value.
# reported pIC50; entries follow

Sample records with pIC50:
- COMPOUND: "O=C(NC1CCC1)c1cccc(N2CCC(O)(C(=O)NCc3cc(F)cc(Cl)c3)C2=O)c1 (stereo not shown)"
  pIC50: "6.00 to 8.00"
- COMPOUND: "O=C1CCc2cc(N3CC[C@](O)(C(=O)NCCc4cc(F)cc(F)c4)C3=O)ccc2N1"
  pIC50: "6.00 to 8.00"
- COMPOUND: "O=C1NCCc2cc(N3CC[C@](O)(C(=O)NCc4cc(F)cc(Cl)c4)C3=O)ccc21"
  pIC50: "6.00 to 8.00"
- COMPOUND: "CC1CC(O)(C(=O)NCc2cc(F)cc(Cl)c2)C(=O)N1c1ccccc1 (stereo not shown)"
  pIC50: "5.00 to 6.00"
- COMPOUND: "CC(C)(C)OC(=O)Nc1ccc(N2CCC(O)(C(=O)NCc3cc(F)cc(Cl)c3)C2=O)cc1CCC(=O)O (stereo not shown)"
  pIC50: "5.00 to 6.00"

Attention now turns to another entry.
Per the records, this compound ( O=C(NC1CC1)c1cccc(N2CC[C@](O)(C(=O)NCc3cc(F)cc(Cl)c3)C2=O)c1 ) has pIC50 equal to 6.00 to 8.00

* * *

What follows is a collection of IC50 values obtained with MetAP-2 (Homo sapiens, UniProt P50579).

Sample records with IC50:
- COMPOUND: "O=C(NCc1cc(F)cc(Cl)c1)[C@]1(O)CCN(c2cccc(NS(=O)(=O)C3CC3)c2)C1=O [A85]"
  IC50: "> 10 µM"
- COMPOUND: "O=C1CCc2cc(N3CC[C@](O)(C(=O)NCc4ccc(Cl)cc4F)C3=O)ccc2N1 [A241]"
  IC50: "0.01 to 1 µM"
- COMPOUND: "O=C(CNC(=O)[C@@]1(O)CCN(c2ccccc2)C1=O)N1CCOCC1 [A62]"
  IC50: "> 10 µM"
- COMPOUND: "O=C(NCc1cc(F)cc(Cl)c1)C1(O)CCN(c2cnc3[nH]cnc3c2)C1=O (stereo not shown) [B35]"
  IC50: "0.01 to 1 µM"
- COMPOUND: "O=C(NCc1cc(F)cc(Cl)c1)C1(O)CCN(CCc2c[nH]c3ccc(F)cc23)C1=O (stereo not shown) [A219]"
  IC50: "0.01 to 1 µM"

Tested on MetAP-2 (Homo sapiens, UniProt P50579), the item COCCn1cc(N2CCC(O)(C(=O)NCc3cc(F)cc(Cl)c3)C2=O)cn1 (stereo not shown) [B82] showed IC50 equal to 0.01 to 1 µM

Tested on MetAP-2 (Homo sapiens, UniProt P50579), the item O=C(NCCc1cccc(F)c1)C1(O)CCN(c2ccc3[nH]ccc3c2)C1=O (stereo not shown) [A212] showed IC50 equal to 0.01 to 1 µM

* * *

What follows is a collection of IC50 values obtained with MetAP-2 (Homo sapiens, UniProt P50579).

- COMPOUND: "O=C(NCc1cc(F)cc(Cl)c1)[C@]1(O)CCN(CCc2c[nH]c3ccccc23)C1=O"
  PARAMETER: "IC50"
  EXPERIMENTAL VALUE: "1 to 10 µM"
- COMPOUND: "COC(=O)CCc1cc(N2CCC(O)(C(=O)NCc3cc(F)cc(Cl)c3)C2=O)ccc1NC(=O)OC(C)(C)C (stereo not drawn)"
  PARAMETER: "IC50"
  EXPERIMENTAL VALUE: "0.01 to 1 µM"
- COMPOUND: "O=C1N(c2ccccc2)CC[C@]1(O)CNCc1cc(F)cc(Cl)c1"
  PARAMETER: "IC50"
  EXPERIMENTAL VALUE: "0.01 to 1 µM"
- COMPOUND: "C=C(Cc1ccccc1)C(=O)[C@@]1(O)CCN(c2ccccc2)C1=O"
  PARAMETER: "IC50"
  EXPERIMENTAL VALUE: "> 10 µM"
- COMPOUND: "CCS(=O)(=O)N1C[C@@H]2[C@H](C1)[C@H]2N1CCC(O)(C(=O)NCc2cc(F)cc(Cl)c2)C1=O (stereo partly drawn)"
  PARAMETER: "IC50"
  EXPERIMENTAL VALUE: "1 to 10 µM"
- COMPOUND: "O=C(N1Cc2ccccc2C1)C1(O)CCN(c2ccccc2)C1=O (stereo not drawn)"
  PARAMETER: "IC50"
  EXPERIMENTAL VALUE: "1 to 10 µM"
- COMPOUND: "O=C1CCc2cc(N3CC[C@](O)(C(=O)NCc4cc(Cl)ccc4F)C3=O)ccc2N1"
  PARAMETER: "IC50"
  EXPERIMENTAL VALUE: "0.01 to 1 µM"
- COMPOUND: "O=C(c1cccc(N2CC[C@@](O)(C(=O)NCc3cc(F)cc(Cl)c3)C2=O)c1)N1CCCCC1"
  PARAMETER: "IC50"
  EXPERIMENTAL VALUE: "> 10 µM"
- COMPOUND: "NC(=O)c1c[nH]c2ccc(N3CC[C@](O)(C(=O)NCc4cc(F)cc(Cl)c4)C3=O)cc12"
  PARAMETER: "IC50"
  EXPERIMENTAL VALUE: "0.01 to 1 µM"
- COMPOUND: "O=C(NCc1cc(F)cc(Cl)c1)C1(O)CCN([C@H]2CCC[C@H](O)[C@@H]2O)C1=O (stereo partly drawn)"
  PARAMETER: "IC50"
  EXPERIMENTAL VALUE: "1 to 10 µM"

Tested on MetAP-2 (Homo sapiens, UniProt P50579), the item O=C1CCc2cc(N3CC[C@](O)(C(=O)NCc4c(F)ccc(F)c4Cl)C3=O)ccc2N1 showed IC50 equal to 0.01 to 1 µM

Tested on MetAP-2 (Homo sapiens, UniProt P50579), the item CN(c1cccc(N2CCC(O)(C(=O)NCc3cc(F)cc(Cl)c3)C2=O)c1)S(C)(=O)=O (stereo not drawn) showed IC50 equal to 0.01 to 1 µM
